molecular target: human PAH with the R408W mutation (Homo sapiens, UniProt P00439, R408W); construct: expressed in transfected cells; assay: Cell Based Phenylalanine Flux Assay; details: A375 cells expressing human R408W PAH; 24 hrs with compound; 13C-Tyrosine by LC-MS; average where tested multiple times; read-out: AC50
readoutKind: AC50

Some solved cases for reference:
1. O=C(c1nnc(CCCN2CCOCC2)o1)N1CCc2[nH]cnc2C1c1nc2ccccc2s1 (centres unmarked) | 1 to 5 µM
2. Cn1cnc(C(=O)N2CCc3[nH]cnc3C2c2nc3ccccc3s2)n1 (centres unmarked) | > 5 µM
3. O=C(c1cnn2cc(Cl)ccc12)N1CCc2[nH]cnc2C1c1nc2ccc(Br)cc2[nH]1 (centres unmarked) | > 5 µM
4. O=C(CCc1cncs1)N1CCc2[nH]cnc2[C@H]1c1nc2ccccc2[nH]1 | > 5 µM
5. O=C(Cc1cscn1)N1CCc2[nH]cnc2[C@H]1c1nc2ccccc2[nH]1 | 1 to 5 µM

Now for the compound whose AC50 we want.
Input line: Given Cn1ncc(C(=O)N2CCc3[nH]cnc3C2c2nc3c(F)cccc3s2)n1 (centres unmarked) , state its recorded AC50.
Output line: 1 to 5 µM

====

biological target: human PAH with the R408W mutation (Homo sapiens, UniProt P00439, R408W); construct: expressed in transfected cells; experiment: Cell Based Phenylalanine Flux Assay; conditions: A375 cells expressing human R408W PAH; 24 hrs compound incubation; 13C-Tyrosine by LC-MS; average where tested multiple times; read-out: AC50
Quick reference: AC50 of the listed items.

Some solved cases for reference:
1. Cc1nc(C(C)(C)N(C)C)oc1C(=O)N1CCc2[nH]cnc2[C@@H]1c1nc2c(F)cccc2s1 [Example 2050] | 1000 to 5000 nM
2. O=C(c1nc2cc(F)ccc2s1)N1CCc2[nH]cnc2[C@@H]1c1nc2ccccc2s1 [Example 1096] | > 5000 nM
3. N#Cc1nn2cc(Br)ccc2c1C(=O)N1CCc2[nH]cnc2[C@H]1c1nc2ccccc2s1 [Example 1779] | < 500 nM
4. Cc1ncoc1C(=O)N1CCc2[nH]cnc2[C@@H]1c1nc2c(F)cccc2s1 [Example 1320] | 1000 to 5000 nM
5. Cn1nc(C(F)F)cc1C(=O)N1CCc2[nH]cnc2[C@H]1c1nc2ccccc2s1 [Example 1803] | < 500 nM
6. O=C(C1CC1)N1CCc2[nH]cnc2[C@H]1c1nc2ccc(Br)cc2[nH]1 [Example 952] | 500 to 1000 nM
7. Cc1c(-c2ncc(C(=O)N3CCc4[nH]cnc4[C@@H]3c3nc4ccccc4s3)o2)cnn1C [Example 1384] | 1000 to 5000 nM
8. O=C(CCC1CC1)N1CCc2[nH]cnc2[C@@H]1c1nc2ccc(F)cc2[nH]1 [Example 961] | > 5000 nM
9. O=C(c1oc(CCN2CC(F)C2)nc1C(F)(F)F)N1CCc2[nH]cnc2[C@H]1c1nc2ccccc2s1 [Example 1575] | < 500 nM
10. C[C@H]1CN(C(=O)c2nnc(-c3ccccn3)o2)[C@H](c2nc3ccccc3s2)c2nc[nH]c21 [Example 1589] | 500 to 1000 nM

Input line: Given O=C(c1ccnn1CC(F)(F)F)N1CCc2[nH]cnc2[C@H]1c1nc2c(F)cccc2s1 [Example 1737] , state its recorded AC50.
Output line: < 500 nM

Input line: Given O=C(c1cnn2ccccc12)N1CCc2[nH]cnc2[C@@H]1c1nc2ccc(Cl)cc2[nH]1 [Example 937] , state its recorded AC50.
Output line: 1000 to 5000 nM

Input line: Given O=C(c1oc(CCN2CC(F)C2)nc1C(F)(F)F)N1CCc2[nH]cnc2[C@H]1c1nc2c(F)cccc2s1 [Example 1665] , state its recorded AC50.
Output line: < 500 nM

Input line: Given O=C(c1cnc(C(F)(F)F)o1)N1CCc2[nH]cnc2[C@H]1c1nc2c(F)cccc2s1 [Example 1401] , state its recorded AC50.
Output line: < 500 nM

Input line: Given Cn1ncc(C(=O)N2CCc3[nH]cnc3[C@H]2c2nc3ccccc3s2)c1C(F)F [Example 1819] , state its recorded AC50.
Output line: 500 to 1000 nM

Input line: Given CC(C)(O)/C=C/c1nc(C(F)(F)F)c(C(=O)N2CCc3[nH]cnc3[C@@H]2c2nc3ccccc3s2)o1 [Example 1570] , state its recorded AC50.
Output line: < 500 nM

Input line: Given O=C(CCc1nc(Cl)cs1)N1CCc2[nH]cnc2[C@H]1c1nc2ccccc2s1 [Example 1023] , state its recorded AC50.
Output line: 500 to 1000 nM

Input line: Given Cc1ccc(-c2nnc(C(=O)N3CCc4[nH]cnc4[C@H]3c3nc4ccccc4s3)o2)nc1 [Example 1880] , state its recorded AC50.
Output line: < 500 nM

Input line: Given O=C(c1nnc(OCCC(F)(F)F)o1)N1CCc2[nH]cnc2[C@@H]1c1nc2ccccc2s1 [Example 1789] , state its recorded AC50.
Output line: 1000 to 5000 nM

Input line: Given N#Cc1nc(OCCC(F)(F)F)oc1C(=O)N1CCc2[nH]cnc2[C@H]1c1nc2ccccc2s1 [Example 1674] , state its recorded AC50.
Output line: 500 to 1000 nM

Input line: Given O=C(c1cnn2ccccc12)N1CCc2[nH]cnc2[C@H]1c1nc2cccc(F)c2[nH]1 [Example 990] , state its recorded AC50.
Output line: 500 to 1000 nM

Input line: Given O=C(c1cnc(C(F)(F)F)o1)N1CCc2[nH]cnc2[C@@H]1c1nc2ccccc2s1 [Example 1348] , state its recorded AC50.
Output line: 1000 to 5000 nM

Input line: Given O=C(c1oc(-c2ccc(F)cn2)nc1C(F)F)N1CCc2[nH]cnc2[C@@H]1c1nc2ccccc2s1 [Example 1745] , state its recorded AC50.
Output line: 500 to 1000 nM

====

biological target: human PAH with the R408W mutation (Homo sapiens, UniProt P00439, R408W); construct: expressed in transfected cells; experiment: Cell Based Phenylalanine Flux Assay; conditions: A375 cells expressing human R408W PAH; 24 hrs compound incubation; 13C-Tyrosine by LC-MS; average where tested multiple times; read-out: AC50
Quick reference: AC50 of the listed items.

Some solved cases for reference:
1) O=C(c1cnn2cc(Cl)ccc12)N1CCc2[nH]cnc2[C@@H]1c1nc2c(F)cccc2s1 [Example 1238] | 1 to 5 µM
2) O=C(c1nccs1)N1CCc2[nH]cnc2[C@@H]1c1nc2ccc(Br)cc2[nH]1 [Example 932] | > 5 µM
3) CC(C)(O)c1nc(Br)c(C(=O)N2CCc3[nH]cnc3[C@H]2c2nc3c(F)cccc3s2)o1 [Example 1897] | < 0.5 µM
4) O=C(c1cncs1)N1CCc2[nH]cnc2[C@@H]1c1ncc(-c2ccccc2)s1 [Example 2146] | > 5 µM

Now for the compound whose AC50 we want.
Input line: Lab note: need AC50 for O=C(CCc1ncc(Cl)s1)N1CCc2[nH]cnc2[C@@H]1c1nc2ccccc2s1 [Example 1026] on human PAH with the R408W mutation (Homo sapiens, UniProt P00439, R408W), anyone have it?
Output line: 1 to 5 µM

====

Target: human PAH with the R408W mutation (Homo sapiens, UniProt P00439, R408W)
Construct: expressed in transfected cells
Sequence (P00439 1-452 R408W): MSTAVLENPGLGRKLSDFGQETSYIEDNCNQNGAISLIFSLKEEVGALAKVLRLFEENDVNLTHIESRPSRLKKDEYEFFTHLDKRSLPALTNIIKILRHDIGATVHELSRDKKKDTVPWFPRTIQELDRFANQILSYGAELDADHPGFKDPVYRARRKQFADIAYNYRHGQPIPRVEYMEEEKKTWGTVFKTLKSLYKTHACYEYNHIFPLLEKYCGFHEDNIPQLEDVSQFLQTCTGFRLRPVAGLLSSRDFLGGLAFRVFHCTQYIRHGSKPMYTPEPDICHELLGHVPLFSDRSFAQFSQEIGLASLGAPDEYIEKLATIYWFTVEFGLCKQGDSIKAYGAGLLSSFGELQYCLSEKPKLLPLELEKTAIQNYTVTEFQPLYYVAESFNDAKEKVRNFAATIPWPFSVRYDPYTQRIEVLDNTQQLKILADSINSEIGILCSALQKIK
Assay: Cell Based Phenylalanine Flux Assay
Settings: A375 cells expressing human R408W PAH; 24 hrs compound incubation; 13C-Tyrosine by LC-MS; average where tested multiple times; read-out: AC50
readoutKind: AC50

Some solved cases for reference:
1) Cn1cc(-c2ncc(C(=O)N3CCc4[nH]cnc4[C@H]3c3nc4c(F)cccc4s3)o2)cn1 | 0.5 to 1 µM
2) CC(C)(O)c1nc(C(F)(F)F)c(C(=O)N2CCc3[nH]cnc3[C@@H]2c2nc3c(F)cccc3s2)o1 | < 0.5 µM
3) O=C(C1CN(c2ncccc2F)C1)N1CCc2[nH]cnc2[C@@H]1c1nc2ccccc2s1 | > 5 µM

Input line: Given CC(C)(O)Cc1nc(C(F)F)c(C(=O)N2CCc3[nH]cnc3[C@H]2c2nc3c(F)cccc3s2)o1 , state its recorded AC50.
Output line: < 0.5 µM
